Listed here: items and their measured inhibition.
- System: Candida albicans
- Method Summary: Inhibition of Candida albicans MDR1 expressed in Saccharomyces cerevisiae AD assessed as reduction in nile red dye efflux at 70 uM after 30 mins by flow cytometry relative to control
Express the reported value numerically, then name its unit.

1. C=C1CC[C@H]2[C@@H](/C=C(\C)C(=O)[C@@]3(O)C[C@H](C)[C@H](O)[C@@H]3[C@H]1OC(=O)c1cccc(C(F)(F)F)c1)C2(C)C | 25%
2. C=C1CC[C@H]2[C@@H](/C=C(\C)C(=O)[C@@]3(O)C[C@H](C)[C@H](O)[C@@H]3[C@H]1O)C2(C)C | 30%
3. CC(=O)O[C@@H]1[C@@H]2[C@@H](OC(C)=O)[C@]3(CC[C@H]4[C@@H](/C=C(\C)C(=O)[C@@]2(OC(C)=O)C[C@@H]1C)C4(C)C)CO3 | 75%
4. C=C1CC[C@H]2[C@@H](/C=C(\C)C(=O)[C@@]3(OC(C)=O)C[C@H](C)[C@H](OC(C)=O)[C@@H]3[C@H]1OC(C)=O)C2(C)C | 35%

-- ask I have this molecule here, C=C1CC[C@H]2[C@@H](/C=C(\C)C(=O)[C@@]3(O)C[C@H](C)[C@H](O)[C@@H]3[C@H]1OC(=O)c1cccc(OC)c1)C2(C)C , and I need its recorded inhibition.
-- reply 35%

-- ask I have this molecule here, C=C1CC[C@H]2[C@@H](/C=C(\C)C(=O)[C@@]3(O)C[C@H](C)[C@H](O)[C@@H]3[C@H]1OC(=O)c1ccccc1)C2(C)C , and I need its recorded inhibition.
-- reply 35%

-- ask I have this molecule here, CCCC(=O)O[C@@H]1[C@@H]2[C@@H](OC(=O)CCC)[C@]3(CC[C@H]4[C@@H](/C=C(\C)C(=O)[C@@]2(OC(=O)CCC)C[C@@H]1C)C4(C)C)CO3 , and I need its recorded inhibition.
-- reply 85%

-- ask I have this molecule here, C/C1=C\[C@@H]2[C@H](CC[C@]3(CO3)[C@H](OC(=O)Cc3ccccc3)[C@H]3[C@@H](OC(=O)Cc4ccccc4)[C@@H](C)C[C@]3(O)C1=O)C2(C)C , and I need its recorded inhibition.
-- reply 15%

-- ask I have this molecule here, CCC(=O)O[C@@H]1[C@@H]2[C@@H](OC(C)=O)[C@]3(CC[C@H]4[C@@H](/C=C(\C)C(=O)[C@@]2(OC(C)=O)C[C@@H]1C)C4(C)C)CO3 , and I need its recorded inhibition.
-- reply 20%

-- ask I have this molecule here, CCCCC(CC)C(=O)O[C@@H]1[C@@H]2[C@@H](OC(=O)C(CC)CCCC)[C@]3(CC[C@H]4[C@@H](/C=C(\C)C(=O)[C@@]2(O)C[C@@H]1C)C4(C)C)CO3 (stereo partly specified) , and I need its recorded inhibition.
-- reply 20%

-- ask I have this molecule here, C=C1CC[C@H]2[C@@H](/C=C(\C)C(=O)[C@@]3(O)C[C@H](C)[C@H](O)[C@@H]3[C@H]1OC(=O)c1cccc(Br)c1)C2(C)C , and I need its recorded inhibition.
-- reply 30%

* * *

- Test system: Candida albicans
- Method Summary: Inhibition of Candida albicans CDR1 expressed in Saccharomyces cerevisiae AD assessed as reduction in nile red dye efflux at 70 uM after 30 mins by flow cytometry relative to control
Listed here: items and their measured inhibition.
Provide only the numeric value, understood in %.

Solved entries:
1) C=C1CC[C@H]2[C@@H](/C=C(\C)C(=O)[C@@]3(O)C[C@H](C)[C@H](O)[C@@H]3[C@H]1OC(=O)c1cccc(Br)c1)C2(C)C | 85
2) C/C1=C\[C@@H]2[C@H](CC[C@]3(CO3)[C@H](O)[C@H]3[C@@H](O)[C@@H](C)C[C@]3(O)C1=O)C2(C)C | 30
3) CCC(=O)O[C@@H]1[C@@H]2[C@@H](OC(C)=O)[C@]3(CC[C@H]4[C@@H](/C=C(\C)C(=O)[C@@]2(OC(C)=O)C[C@@H]1C)C4(C)C)CO3 | 10
4) C/C1=C\[C@@H]2[C@H](CC[C@]3(CO3)[C@H](OC(=O)c3ccc(C)cc3)[C@H]3[C@@H](OC(=O)c4ccc(C)cc4)[C@@H](C)C[C@]3(O)C1=O)C2(C)C | 30
5) C=C1CC[C@H]2[C@@H](/C=C(\C)C(=O)[C@@]3(O)C[C@H](C)[C@H](O)[C@@H]3[C@H]1OC(=O)c1ccc(C(F)(F)F)cc1)C2(C)C | 70
6) CC(=O)O[C@@H]1[C@@H]2[C@@H](OC(C)=O)[C@]3(CC[C@H]4[C@@H](/C=C(\C)C(=O)[C@@]2(OC(C)=O)C[C@@H]1C)C4(C)C)CO3 | 20
7) C/C1=C\[C@@H]2[C@H](CC[C@]3(CO3)[C@H](OC(=O)c3ccccc3)[C@H]3[C@@H](OC(=O)c4ccccc4)[C@@H](C)C[C@]3(O)C1=O)C2(C)C | 25

Let us examine a further case.
-- ask Item C=C1CC[C@H]2[C@@H](/C=C(\C)C(=O)[C@@]3(O)C[C@H](C)[C@H](O)[C@@H]3[C@H]1O)C2(C)C with Candida albicans - inhibition?
-- reply 40

* * *

- Test system: Candida albicans
- Method Summary: Inhibition of Candida albicans CDR1 expressed in Saccharomyces cerevisiae AD assessed as potentiation of fluconazole-induced antifungal activity against Saccharomyces cerevisiae AD by checkerboard method
Metric: fractional inhibitory concentration index (FICI)
Answer field: number only, no words.

1. C/C1=C\[C@@H]2[C@H](CC[C@]3(CO3)[C@H](OC(=O)c3ccc(C)cc3)[C@H]3[C@@H](OC(=O)c4ccc(C)cc4)[C@@H](C)C[C@]3(O)C1=O)C2(C)C | 1.4
2. C=C1CC[C@H]2[C@@H](/C=C(\C)C(=O)[C@@]3(O)C[C@H](C)[C@H](O)[C@@H]3[C@H]1OC(=O)c1ccccc1)C2(C)C | 1.4

Let us examine a further case.
-- ask I have this compound here, C=C1CC[C@H]2[C@@H](/C=C(\C)C(=O)[C@@]3(O)C[C@H](C)[C@H](O)[C@@H]3[C@H]1OC(=O)/C=C/c1ccccc1)C2(C)C , and I need its recorded fractional inhibitory concentration index (FICI).
-- reply 1.4

* * *

- Tested on: Candida albicans
- Method Summary: Inhibition of Candida albicans MDR1 expressed in Saccharomyces cerevisiae AD assessed as ratio of compound MIC80 in combinantion with fluconazole to compound alone MIC80 for Saccharomyces cerevisiae AD by checkerboard method
Metric: Ratio
Answer field: number only, no words.

Solved entries:
1) CCCC(=O)O[C@@H]1[C@@H]2[C@@H](OC(=O)CCC)[C@]3(CC[C@H]4[C@@H](/C=C(\C)C(=O)[C@@]2(OC(=O)CCC)C[C@@H]1C)C4(C)C)CO3 | 1
2) C/C1=C\[C@@H]2[C@H](CC[C@]3(CO3)[C@H](OC(=O)Cc3ccccc3)[C@H]3[C@@H](OC(=O)Cc4ccccc4)[C@@H](C)C[C@]3(O)C1=O)C2(C)C | 1

Let us examine a further case.
-- ask I have this compound here, CCC(=O)O[C@@H]1[C@@H]2[C@@H](OC(C)=O)[C@]3(CC[C@H]4[C@@H](/C=C(\C)C(=O)[C@@]2(OC(C)=O)C[C@@H]1C)C4(C)C)CO3 , and I need its recorded Ratio.
-- reply 1

* * *

- System: Candida albicans
- Method Summary: Inhibition of Candida albicans CDR1 expressed in Saccharomyces cerevisiae AD assessed as potentiation of fluconazole-induced antifungal activity against Saccharomyces cerevisiae AD by checkerboard method
Listed here: items and their measured fractional inhibitory concentration index (FICI).
Answer field: number only, no words.

-- ask Item CCCC(=O)O[C@@H]1[C@@H]2[C@@H](OC(C)=O)[C@]3(CC[C@H]4[C@@H](/C=C(\C)C(=O)[C@@]2(OC(C)=O)C[C@@H]1C)C4(C)C)CO3 with Candida albicans - fractional inhibitory concentration index (FICI)?
-- reply 1.4

-- ask Item C=C1CC[C@H]2[C@@H](/C=C(\C)C(=O)[C@@]3(O)C[C@H](C)[C@H](O)[C@@H]3[C@H]1O)C2(C)C with Candida albicans - fractional inhibitory concentration index (FICI)?
-- reply 1.4

-- ask Item C=C1CC[C@H]2[C@@H](/C=C(\C)C(=O)[C@@]3(O)C[C@H](C)[C@H](O)[C@@H]3[C@H]1OC(=O)c1cccc(C(F)(F)F)c1)C2(C)C with Candida albicans - fractional inhibitory concentration index (FICI)?
-- reply 0.52

-- ask Item C=C1CC[C@H]2[C@@H](/C=C(\C)C(=O)[C@@]3(O)C[C@H](C)[C@H](O)[C@@H]3[C@H]1OC(=O)c1ccc(C(F)(F)F)cc1)C2(C)C with Candida albicans - fractional inhibitory concentration index (FICI)?
-- reply 1.4

-- ask Item CC(=O)O[C@@H]1[C@@H]2[C@@H](OC(C)=O)[C@]3(CC[C@H]4[C@@H](/C=C(\C)C(=O)[C@@]2(OC(C)=O)C[C@@H]1C)C4(C)C)CO3 with Candida albicans - fractional inhibitory concentration index (FICI)?
-- reply 1.4

These entries and their values trace back to ChEMBL document CHEMBL4020757.
